Origin of the recorded values: paper PMC12746157

ASSAY_NAME: Proportions of cis and trans at the photostationary state in DMSO from absorbance spectra (Ernst Fischer method)
Type: physicochemical
CONDITION_PARAMETERS: 420 nm
TEST_READOUT: %cis at the photostationary state

MOLECULE: Cc1cc(OCC(O)C(C)(C)C)ccc1/N=N/c1cccc(-c2ccc(CO)cc2)c1 (centres unmarked) [Compound 12b]
%cis at the photostationary state: 59,96%
--
MOLECULE: Cc1cc(/N=N/c2cccc(-c3ccc(CO)cc3C)c2)ccc1OCC(O)C(C)(C)C (centres unmarked) [Compound 12c]
%cis at the photostationary state: 56,13%
--
MOLECULE: Cc1cc(/N=N/c2cccc(-c3ccc(C(=O)O)cc3C)c2)ccc1OCC(O)C(C)(C)C (centres unmarked) [Compound 11c]
%cis at the photostationary state: 59,26%
--
MOLECULE: Cc1cc(OCC(O)C(C)(C)C)ccc1/N=N/c1cccc(-c2ccc(C(=O)O)cc2C)c1 (centres unmarked) [Compound 11d]
%cis at the photostationary state: 54,69%
--
MOLECULE: Cc1cc(/N=N/c2cccc(-c3ccc(CO)cc3)c2)ccc1OCC(O)C(C)(C)C (centres unmarked) [Compound 12a]
%cis at the photostationary state: 60,45%

Lookup: Suppose we examine the molecule COC(=O)c1ccc(-c2cccc(/N=N/c3ccc(OCC(O)C(C)(C)C)c(C)c3)c2)cc1 (centres unmarked) [Compound 10a] ; what %cis at the photostationary state value has been reported?
Found: 58,05%

Lookup: Repeat with COC(=O)c1ccc(-c2cccc(/N=N/c3ccc(OCC(O)C(C)(C)C)cc3C)c2)c(C)c1 (centres unmarked) [Compound 10d]
Found: 59,99%

Lookup: Repeat with COC(=O)c1ccc(-c2cccc(/N=N/c3ccc(OCC(O)C(C)(C)C)c(C)c3)c2)c(C)c1 (centres unmarked) [Compound 10c]
Found: 59,71%
